assay: yeast display, Sf9 membrane polyspecificity reagent, FACS + sequencing; frameworks hold sequencing errors
PROPERTY LABEL: polyreactivity (PSR sort gate)

sequence_chain=QVQLVESGGGLVQAGGSLRLSCAASGSTFGGNAMGWYRQAPGKERELVAAISSSGGSTYYADSVKGRFTISRDNAKITVYLQMNSLKPEDTAVYYCAALYHWTYDYWGQGTQVTVSS property_label="polyreactivity (PSR sort gate)" test_value="low polyreactivity"
sequence_chain=QVQLVESGGGLVKAGGSLRLSCAASGSTFYNYAMGWYRQAPGKERELVAAISTRGGSTYYADSVKGRFTISRDNAKNTVYLQMNSLKPEDTAVYYCAADGRGGHDDYWGQGTQVTVSS property_label="polyreactivity (PSR sort gate)" test_value="high polyreactivity"
sequence_chain=QVQLVESGGGLGHAGGSLRLSCAASGFTYTAYAMGWYRQAPGKERELVPSISKSDGSTYYADSVKGRFTISRDNAKNTVYLQMKSVKPEDTAVYYCATGRISRDFHRVQDLGYDYWGQGTQVNVSS property_label="polyreactivity (PSR sort gate)" test_value="low polyreactivity"
sequence_chain=QVQLVESGGGLVQAGGSLRLSCAASGSIFPTNAMGWYRQAPGKERELVAAITSGGGTNYADSVMGRFTISRDNAKNTVYLQMNSLKTEDTAVYYCAADRYVEYGYWGQGTQVTVSS property_label="polyreactivity (PSR sort gate)" test_value="low polyreactivity"
sequence_chain=QVQLVESGGGLVQAGGSLRLSCAASGRTFTRYAMGWYRQAPGKERELVAAISRSGGSTHYADSVKGRFTISRDKAKNTVYLQMNSLKPEDTAVYYCNAQQGRYWSAKGYDYWGQGTQVTVSS property_label="polyreactivity (PSR sort gate)" test_value="high polyreactivity"
sequence_chain=QVQLVESGGGLVQAGGSLSLSSAASGFTSTLNDMGWYRQAPGKERELVAAISNGGSTYYADSVKGRFTISRDNAKNTVYLQMNSLKPEDTAVYYCAVTATAPQEGDYWGQGTQVTVSS property_label="polyreactivity (PSR sort gate)" test_value="low polyreactivity"
sequence_chain=QVQLVESGGGLVQAGGSLRLSCAASGFIFVYYVMGWYRQAPGKERELVAAITQSGGSTYYADSVKGRFTISRDNAKNTVYLQMNSLKPEDTAVYYCAAYRRTTGGGYDYWGQGTQVTVSS property_label="polyreactivity (PSR sort gate)" test_value="high polyreactivity"
sequence_chain=QVQLVESGGGLVQAGGSLRLSCAASGSTFVGYAMGWYRQAPGQERELVAGITINGGSTYYADSVKGRFTISRDNAKNTVYLQMNSLKPEDTAVYYCAATGNENYPDPLQSMDYWGQGTQVTVSS property_label="polyreactivity (PSR sort gate)" test_value="low polyreactivity"
sequence_chain=QVQLVESGGGLVQAGGSLRLSCAASGFIFSGYVMGWYRQAPGKERELVAAITGSDGSTYYADSVKGRFTISRDNAKNTVYLQMNSLKPEDTAVYYCATTFQYYWFSLYDYWGQGTQVTVSS property_label="polyreactivity (PSR sort gate)" test_value="low polyreactivity"
sequence_chain=QVQLVESGGGLVQAGGSLRLSCAASGFTFVVYTMGWYRQAPGKEREFVAVISESGGSTYYADSVKGRFTISRDNAKNTVYLQMNSLKPEDTAVYYCAARTRYYRDNYWGQVTQVTVSS property_label="polyreactivity (PSR sort gate)" test_value="high polyreactivity"

Next sequence, please.
## Task Return polyreactivity (PSR sort gate) for the following sequence: "QVQLVESGGALVQAGGSLRLSCAASGSIFYTNAMGWYRQAPGKERELVAAIRWSGGRTYYADSVKGRFTISRDNAKNTVYLQMNSLKPEDTAVYYCNKVPRTPIPYKYGDWGQGTHVTVSS"
## Result high polyreactivity

###

experiment: yeast display, Sf9 membrane polyspecificity reagent, FACS + sequencing; frameworks hold sequencing errors
PROPERTY LABEL: polyreactivity (PSR sort gate)

sequence_chain=QVQLVESGGGLVQAGGSLRLSCAASGRTFYVYAMGWYRQAPGKERELVATISRGGSTTYADSVKGRFTISRDNAKNTVYLQMNSLKPEDTAVYYCATELLGGRRTVAYYWGQGTQVTVSS test_value="low polyreactivity"
sequence_chain=QVQLVESGGGLVQAGGSLRLSCAASGRTFGNYAMGWSRQAPGKERELVAAITFRGGSTYYADSVKGRFTISRDNAKNTVYLQMNSLKPEDTAVYYCNAERYVGHTYFQFDYWGQGTQVTVSS test_value="high polyreactivity"
sequence_chain=QVQLVESGGGLVQAGGSLRLSCAASGSTFVINAMGWYRQAPGKERELVAAISYDGGGTYYADSVKGRFTISRDNAKNTVYLQMNSLKPEDTAVYYCAAENFYPYTYYASDYWGQGTQVTVSS test_value="high polyreactivity"
sequence_chain=QVQLVESGGGLVQAGGSLRLSCAASGRIFAQYAMGWYRQAPGKERELVAGIDRRGGSTYYADSVKGRFTISRDNAKNTVYLQMNILKPEDTAVYYCAAYGTTGVYRGPGYDYWGQGTQVTVSS test_value="low polyreactivity"
sequence_chain=QFQLVESGGGLVQAGGSLRLSCAASGRIFLSYAMGWYRQAPGKERELVAAITLSGGSTYYADSVKGRFTISRDNAKNTVSLQMNSLKPEVTGVYYCAADAWFSLRYAPRSYAYGYWGQGTQVTVSS test_value="low polyreactivity"
sequence_chain=QVQLVESGGGLVQAGGSLRLSCAASGLTFVYYAMGWYRQAPGKERELVAVISSSGGSTYYADSVKGRFTISRDNAKNTVYLQMNSLKPEDTAVYYCAAPRQVYYQTDNDYWGQGTQVTVSS test_value="high polyreactivity"

## Task Return polyreactivity (PSR sort gate) for the following sequence: "QVQLVESGGGLVQAGGSLRLSCAASGRTFSSNAMGWYRPAPGKEREMVAAITRRSGSTYYADSVKGRFTISRDNAKNTVYLQMNSLKPEDTAVYYCNADIDSYREMDYWGQGTQVTVSS"
## Result low polyreactivity

## Task Return polyreactivity (PSR sort gate) for the following sequence: "QVQLVESGGGLVQAGGSLRLSCAASGRIYVNAMGWYIQAPGKERELVAAIRSGGSTNYADSVKGRFTISRDNAKNTVYLQMNSLKPEDTAVYYCNARRRDYRHWYDYWGQGTQVTVSS"
## Result high polyreactivity

## Task Return polyreactivity (PSR sort gate) for the following sequence: "QVQLVESGGGLVQAGGSLRLSCAASGFIFKSNAMGWYRQAPGKERELVAAITRSGGRTYYADSVKGRFTISRDNAKNTVYLQMNSLKPEDTAVYYCNAKLYTGSFDYWGQGTQVTVSS"
## Result high polyreactivity

## Task Return polyreactivity (PSR sort gate) for the following sequence: "QVQLVESGGGLVQAGGSLRISCAASGRTLGAYALGWSRQAPGKERELVAVISRRGGSTYYADSVKGRFTISRVNAKNTVYLQMNSLKPEDSAVYYCARTTLLYRTLSPGEYWGQGTQVTVSS"
## Result high polyreactivity

## Task Return polyreactivity (PSR sort gate) for the following sequence: "QVQLVESGGGLVQAGGSLRLSCAAYGRTFSHYAMGWYRQAPGKERELVAGITSGGRTYYADSVKGRFTISRDNAKNTVYLQMNSLKPEDTEVYYCAIRRYTAIWYGYWGQGTQETVSS"
## Result high polyreactivity

###

assay: yeast display, Sf9 membrane polyspecificity reagent, FACS + sequencing; frameworks hold sequencing errors
PROPERTY LABEL: polyreactivity (PSR sort gate)

sequence_chain=QVQLVESGGGLVQAGGSLRLTCAASGSTFYRYAMGWYRQAPGKERELVAAISTSGGRTYYADSVKGRFTISRDNAKNTVYLQMNSLKPEDTAVYYCAADQYRYYRSTYDYWGQGTQVTVSS property_label="polyreactivity (PSR sort gate)" test_value="high polyreactivity"
sequence_chain=QVQLVESGGGLVQAGCSLRLSCAASGSTSAYYVMGWNRQAPGKARELVAAIDFSGDSTYYADSVKGRFTISRDNAKNTVYLQMNSLKPEDTAVYYCAAELFYYSSLVTYEYWGQGTQVTVSS property_label="polyreactivity (PSR sort gate)" test_value="high polyreactivity"

###

experiment: yeast display, Sf9 membrane polyspecificity reagent, FACS + sequencing; frameworks hold sequencing errors
PROPERTY LABEL: polyreactivity (PSR sort gate)

sequence_chain=QVQLVESGGGLVQGGGSLRLSCAASGINFGLYTMGWYRQAPGKERELVAAISDSGGRTYYADSVKGRFTISRDNAQNTVYLQMNSLKPEDTSVYYCAAEFWYVWEYNYWGQGTQVTVSS property_label="polyreactivity (PSR sort gate)" test_value="high polyreactivity"
sequence_chain=QVQLVESGGGLVQEGGSLRLSCAASGITFGRYAMGWYRQAPGKERELVAAITTRGGSTYYADSVKGRFTISRDNAKNTVYLQMNSLKPEDTAVYYCAARVPGVSVKNDYCGQGTQVTVSS property_label="polyreactivity (PSR sort gate)" test_value="high polyreactivity"
sequence_chain=QVQLVESVGGLVQAGGSLRLSCAASGIFRQNAMGWYRQAPGKERELVAGISQSGGSTYYADSVKGRFTISRDNAKNTVYLQMNSLKPEDTAVYYCAVVSIWGYDYWGQGTQVTVSS property_label="polyreactivity (PSR sort gate)" test_value="low polyreactivity"
sequence_chain=QVQLVESGGGLVQAGGSLRLSCAASGSTFGYYARGWYRQAPGKERELVAAISWSGTRTYYADSVKGRFTISRDNATNTVYLQMNSLKPEDTAVYYCAVRISRPRVYYYWGQGTQVTVSS property_label="polyreactivity (PSR sort gate)" test_value="high polyreactivity"
sequence_chain=QVQLVESGGGLVQAGGSLRLSCAASGITFGAYAMGWYRQAPGKERELVAVITRGADTYYADSVKGRFTISRDNAKNTVYLQMNSLKPEETAVYYCAAQIDLPYYYGSDDDDYWGQGTQVTVSS property_label="polyreactivity (PSR sort gate)" test_value="high polyreactivity"
sequence_chain=QVQLVESGGGLVQAGGSLRLSCAASGSTFLDYTMGWYRHAPGKERELVAVIYYRAGSTYYADSVKGRFTISRDNAKNTVYLQMNSLKPEDTAVYYCNADYYNFWRRRRYLWYESWGQGTQVTVSS property_label="polyreactivity (PSR sort gate)" test_value="low polyreactivity"

## Task Return polyreactivity (PSR sort gate) for the following sequence: "QIQLVESGGGLVQAGGSLRLSCAASGFTFYYYVMGWYRQAPGKERELVAAISSRGGSTYYADSVKGRFTISRDNAKNTVYLQMNSLKPEDTAVYYCAATYWPYRPGYYYWGQGTQVTVSS"
## Result high polyreactivity

## Task Return polyreactivity (PSR sort gate) for the following sequence: "HDQHVESGGGLVQAGGSLRLSCAASGRIYGSTMGWYRQAPGKERELVAAITRNGGSTYYADSVKGRFTISRDNSKNTVYLQMNSVKPEDTEVYYCAARNAFGTYYYWGQGTQVNVSS"
## Result high polyreactivity

## Task Return polyreactivity (PSR sort gate) for the following sequence: "QVQLVESGGGLVQAGGSLRLSCAASGFIFYKNAMGWYRQAPGKERELVAAISSRGGSTSYADSVKGLFTISRDNAKNTVYLQMNSLKQEDTAVYYCAAYPDYSYFYWGQGTQVTVSS"
## Result high polyreactivity

## Task Return polyreactivity (PSR sort gate) for the following sequence: "QVQLVESGGGLVQAGGSLRLICAASGRIFRGYAMGWYRQAPGKERELVAAISGRGGRTNYADSVKGRFTISRDNAKNTVYLQMNSLKPEDTAVYYCATVPYTASRYEYWGQGTQVTVSS"
## Result high polyreactivity

## Task Return polyreactivity (PSR sort gate) for the following sequence: "QVQLVESGGGLVQAGGSLRLSCAASGCIFWKDAMGWYRQAPGKERELVAAITSGGGTYYADSVKGLFTISRDNAKNTVYLQMNSLKPEDTAVYYCAARSLSVARRRPYYYWGQGTQVTVSS"
## Result high polyreactivity

Numbers sourced from the nanobody polyreactivity screen of Harvey et al. (2022).
